- System: STK39;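 further: KINOMEscan kinase panel screen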
- studyConditions: concentration: 1 μM, replicates: in singlicate; n = 1
Listing of recorded %Inh by entry.
Lab book: enter the figure in %, no units written.

molecule | %Inh (%)
Cc1cccc(-c2nc(-c3ccc(S(C)(=O)=O)cc3)sc2-c2ccnc(NCCc3ccccc3)c2)c1 | 1

Lookup: Consider the molecule Cc1ccccc1-n1cnc2c(N)ncnc21 and give its measured %Inh.
Found: 0

Lookup: Query: %Inh; subject: O=C(Nc1n[nH]c2nc(-c3nccs3)c(Br)cc12)C1CC1
Found: 21

Lookup: Need %Inh of COc1cc2ncn(-c3cc(OCC4CCCO4)c(C(N)=O)s3)c2cc1OC (centres unmarked) , thanks.
Found: 0

Lookup: // %Inh lookup, key: COc1ccc(Nc2nccc(NCCNC(=O)Nc3ccccc3F)n2)cc1
Found: 10

Where these numbers come from: paper PMC5540273
